test system: HCV replicon cells Huh 9B; experiment: HCV replicon assay (luciferase readout); type: cell-based
Listed next: entries and their corresponding IC50.

- Cc1ccc(C(=O)Nc2ccc(N3CCOCC3)cc2)cc1-c1ccc(C(=O)Nc2ccc(N)cc2)cc1 [Example 53]: 1000 to 5000 nM
- Cc1ccc(C(=O)Nc2ccc(N3CCOCC3)cc2)cc1-c1ccc(C(=O)Nc2ccc(CN3CCS(=O)(=O)CC3)cc2)cc1 [Example 50]: < 1000 nM
- CCC1(c2ccc(NC(=O)c3ccc(-c4cc(C(=O)Nc5ccc(N6CCOCC6)cc5)ccc4C)cc3)cc2)CCC(O)NC1=O (stereo not shown) [Example 71]: < 1000 nM
- Cc1ccc(C(=O)Nc2ccc(-n3cncn3)cc2)cc1-c1ccc(C(=O)Nc2ccc(CN3CCS(=O)(=O)CC3)cc2)cc1 [Example 139]: < 1000 nM
- COCCNC(=O)c1ccc(C)c(-c2ccc(C(=O)Nc3ccc(CN4CCS(=O)(=O)CC4)cc3)cc2)c1 [Example 126]: 1000 to 5000 nM
- O=C(Nc1ccc2cc[nH]c2c1)c1ccc(-c2cccc(C(=O)Nc3ccc(N4CCOCC4)cc3)c2)cc1 [Example 60]: < 1000 nM

Alright, here's another compound for you.
Task: State, in one line, measured IC50 of Cc1ccc(C(=O)Nc2ccc(N3CCOCC3)cc2)cc1-c1ccc(C(=O)Nc2cccc3cc[nH]c23)cc1 [Example 48]
Result: 1000 to 5000 nM
